target: Voltage-gated potassium channel subunit beta-2 (Rattus norvegicus); test: KvBeta enzyme negative modulators, primary screen, biochemical, NADPH fluorescence (AID 622); conditions: recombinant KvBeta, 4-cyanobenzaldehyde reduction, at 10 µM;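 further: slope of raw intensity against log time taken from 70 to 1610 s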
Active and inactive are the calls of the source.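 How the source made its calls: active means fluorescence slope higher than the sample average by over 3 SD (cut at about -0.22 in these data, passing the limit was not always enough); inactive means the rest.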
Form entry, call: pick from label 1 = active, label 0 = inactive

In: Hello, I am checking results. What call was entered for COc1cc(NC2=CC(=O)CC(C)(C)C2)cc(OC)c1OC ?
Out: label 0

In: Hello, I am checking results. What call was entered for c1ccc(CN2CCN(c3nc(-c4ccccn4)nc4ccccc34)CC2)cc1 ?
Out: label 0

In: Hello, I am checking results. What call was entered for C[C@H]1C[C@@H]2[C@H]([C@@H](O)C[C@@]3(C)[C@H]2CC[C@]3(O)C(=O)CO)[C@@]2(C)C=CC(=O)C=C12 ?
Out: label 0

In: Hello, I am checking results. What call was entered for CC(C)(C)c1nnc2sc(SCC(=O)c3ccccc3)nn2c1=O ?
Out: label 0

In: Hello, I am checking results. What call was entered for CCCCOc1ccc(C(=O)Nn2cnnc2)cc1 ?
Out: label 0

In: Hello, I am checking results. What call was entered for CCCOc1ccc(/C(O)=C2/C(=O)C(=O)N(CCN(C)C)C2c2ccc(OC)c(OC)c2)cc1 (stereo not given) ?
Out: label 0

In: Hello, I am checking results. What call was entered for Cc1nc(NCCN)c(C#N)c2c1COC(C)(C)C2 ?
Out: label 0

In: Hello, I am checking results. What call was entered for CCCCN(CCCC)c1nc2ccccc2nc1C(C#N)C(=O)NCCCOC (stereo not given) ?
Out: label 1

In: Hello, I am checking results. What call was entered for c1ccc(C2Nc3ccccc3-c3nc4ccccc4n32)nc1 (stereo not given) ?
Out: label 0

In: Hello, I am checking results. What call was entered for COC(=O)c1ccccc1N1C(=O)[C@@H]2C(c3ccc(Br)cc3)=NO[C@@H]2C1=O ?
Out: label 0

----------
experiment: inhibitors of Chlamydomonas gravitaxis, primary screen, whole organism, Chlamydomonas reinhardtii, WT vs cilia-less mutant, absorbance, 96-well (AID 463189); conditions: OD600 absorbance, 2 days, at 10 µM;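 further: 0% = wild type cc124 cells in DMSO and 100% = ciliumless bld1 mutant cells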
The source made the active and inactive calls.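 The calls were made as follows: active = inhibition at or above 50% relative to wild type and mutant plate controls; inactive = inhibition below 50%.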
Form entry, call: pick from active, inactive

In: Hello, I am checking results. What call was entered for CC(C)c1nc(NCC2CCCO2)c(C#N)c2c1COC(C)(C)C2 (stereo not drawn) ?
Out: inactive

In: Hello, I am checking results. What call was entered for CN=c1sc2ccccc2n1CC(O)COc1ccccc1 (stereo not drawn) ?
Out: inactive

In: Hello, I am checking results. What call was entered for COc1cc(C2C(C(=O)c3cccs3)=C(O)C(=O)N2c2cc(C)on2)ccc1O (stereo not drawn) ?
Out: inactive

In: Hello, I am checking results. What call was entered for CC1CCc2cc(F)cc3c(O)c(C(=O)Nc4cnccn4)c(=O)n1c23 (stereo not drawn) ?
Out: inactive

In: Hello, I am checking results. What call was entered for OCCNc1ncnc2c1c(-c1ccccc1)c(-c1ccccc1)n2Cc1ccco1 ?
Out: inactive

In: Hello, I am checking results. What call was entered for Cc1ccc(S(=O)(=O)c2cc3c(=O)n4ccccc4nc3n(C)c2=N)cc1 ?
Out: inactive

In: Hello, I am checking results. What call was entered for Cc1nn(-c2ccccc2)c2c1C(c1ccc(F)cc1F)C(C#N)=C(N)O2 (stereo not drawn) ?
Out: inactive

In: Hello, I am checking results. What call was entered for CN(C=C1C(=O)CC(C)(C)CC1=O)CCN1CCNCC1 ?
Out: inactive

In: Hello, I am checking results. What call was entered for CCCc1nc(N2CCOCC2)c(C#N)c2c1CCCC2 ?
Out: inactive

In: Hello, I am checking results. What call was entered for Cc1ccc(C2CC(C(F)(F)F)n3ncc(C(N)=O)c3N2)cc1 (stereo not drawn) ?
Out: inactive

In: Hello, I am checking results. What call was entered for COc1cccc(/C=C2/CN(C)CC3=C2OC(N)=C(C#N)C3c2cccc(OC)c2)c1 (stereo not drawn) ?
Out: inactive

In: Hello, I am checking results. What call was entered for Cc1ccc(S(=O)(=O)NC(=O)NCc2ccc3c(c2)OCO3)cc1 ?
Out: inactive

In: Hello, I am checking results. What call was entered for CC(=O)OCC(=O)[C@@]12OC3(CCCC3)O[C@@H]1C[C@H]1[C@@H]3CCC4=CC(=O)C=C[C@]4(C)[C@@]3(F)[C@@H](O)C[C@@]12C ?
Out: inactive

In: Hello, I am checking results. What call was entered for CN=c1sc2ccccc2n1CC(O)COCc1ccco1 (stereo not drawn) ?
Out: inactive

In: Hello, I am checking results. What call was entered for CCN1CCN(c2nc3c(C)cccn3c(=O)c2/C=C(\C#N)S(=O)(=O)c2ccccc2)CC1 ?
Out: inactive

In: Hello, I am checking results. What call was entered for O=C(c1ccc(F)cc1)N1CCC(N2CCCCCC2)CC1 ?
Out: inactive

In: Hello, I am checking results. What call was entered for N#Cc1c(N)n(CCOC(=O)c2cccc(Br)c2)c2nc3ccccc3nc12 ?
Out: inactive

In: Hello, I am checking results. What call was entered for COc1ccc(NS(=O)(=O)c2ccc(N)cc2)nn1 ?
Out: inactive

In: Hello, I am checking results. What call was entered for CCOc1ccc(C2C(C#N)=C(N)SC(N)=C2C#N)cc1OC ?
Out: inactive

In: Hello, I am checking results. What call was entered for CNC(=O)c1cc2c(ccc3ccccc32)oc1=N ?
Out: inactive

In: Hello, I am checking results. What call was entered for CCCCN1C[C@H](O)[C@@H](O)[C@H](O)[C@H]1CO ?
Out: inactive

In: Hello, I am checking results. What call was entered for c1coc(-c2nnc3sc(Cc4cccs4)nn23)c1 ?
Out: inactive

In: Hello, I am checking results. What call was entered for CC(C)OC(=O)CC1=NC(=O)CS1 ?
Out: inactive

In: Hello, I am checking results. What call was entered for CC1C/C=C/C=C/C=C/C=C/C(O[C@@H]2O[C@H](C)[C@@H](O)[C@H](N)[C@@H]2O)CC2OC(O)(CC(O)CC3OC3/C=C/C(=O)O1)CC(O)C2C(=O)O (stereo partly drawn) ?
Out: inactive

In: Hello, I am checking results. What call was entered for CCS(=O)(=O)CCn1c([N+](=O)[O-])cnc1C ?
Out: inactive

In: Hello, I am checking results. What call was entered for CC(C)(C)c1cccc(/C=N/O)c1O ?
Out: inactive

In: Hello, I am checking results. What call was entered for CCOc1cccc(-c2nnc3sc(-c4ccc(C)cc4)nn23)c1 ?
Out: inactive

In: Hello, I am checking results. What call was entered for C[C@@H]1C[C@H]2[C@@H]3CCC4=CC(=O)C=C[C@]4(C)[C@@]3(F)[C@@H](O)C[C@]2(C)[C@H]1C(=O)CO ?
Out: inactive

In: Hello, I am checking results. What call was entered for Oc1c(I)cc(I)c2cccnc12 ?
Out: inactive

In: Hello, I am checking results. What call was entered for CC(=O)[C@@]1(O)CC[C@H]2[C@@H]3C[C@H](C)C4=CC(=O)CC[C@]4(C)[C@H]3CC[C@@]21C ?
Out: inactive

In: Hello, I am checking results. What call was entered for COc1cccc(-c2nnc3sc(-c4cccs4)nn23)c1 ?
Out: active

In: Hello, I am checking results. What call was entered for CCOc1ccccc1N1CCN(c2nc3ccccc3nc2C(C#N)C(=O)OC(C)C)CC1 (stereo not drawn) ?
Out: inactive

In: Hello, I am checking results. What call was entered for COCCCN1C(=O)C(O)=C(C(=O)c2ccco2)C1c1ccc(Br)cc1 (stereo not drawn) ?
Out: inactive

In: Hello, I am checking results. What call was entered for CC1(C)S[C@@H]2[C@H](NC(=O)C(C(=O)O)c3ccccc3)C(=O)N2[C@H]1C(=O)O (stereo partly drawn) ?
Out: inactive

In: Hello, I am checking results. What call was entered for O=C(Nc1nc(NC(=O)c2ccco2)n(-c2ccccc2)n1)c1ccccc1 ?
Out: inactive

In: Hello, I am checking results. What call was entered for CC1(C)Cc2c(sc3c2C2=NCCN2C=N3)CO1 ?
Out: active

In: Hello, I am checking results. What call was entered for CCOC(=O)/C(C#N)=C1\Nc2ccccc2N=C1N(CC(C)C)CC(C)C ?
Out: inactive

In: Hello, I am checking results. What call was entered for CC1(C)Cc2c(sc3c2C2=NCCN2C=N3)CS1 ?
Out: inactive

In: Hello, I am checking results. What call was entered for CCOC(=O)CSc1nc2ccccc2c(=O)n1C ?
Out: inactive

In: Hello, I am checking results. What call was entered for COCCNc1nc2c(c(=O)n(Cc3ccc(OC)cc3)c(=O)n2C)n1C ?
Out: inactive

In: Hello, I am checking results. What call was entered for CCc1cc(=O)oc2c(CN3CCN(C)CC3)c(O)c(Cl)cc12 ?
Out: inactive

In: Hello, I am checking results. What call was entered for CSc1nnc2n(C3CCCCC3)c(=O)c3c4c(sc3n12)CCCC4 ?
Out: inactive

In: Hello, I am checking results. What call was entered for C=C(C)CSC1=C(C#N)C(c2ccsc2)CC(=O)N1 (stereo not drawn) ?
Out: inactive
